- procedure text: NCI Yeast Anticancer Drug Screen. Data for the rad50 strain (AID 155);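 note: 0% = growth of vehicle-only cultures of the same strain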
- conditions: S. cerevisiae rad50 strain growth inhibition; at 50.0 µM; stronger effect = higher value
- Procedure: Growth inhibition of yeast strains with defined genetic alterations is measured as a screen for potential anti-cancer activity. Selected strains with alterations in DNA damage repair or cell cycle control were exposed to compounds and growth inhibition was measured relative to vehicle treated controls. The strain used in this assay is rad50
The panel holds about 79,000 compounds, 15% with a hit somewhere; the sample as a whole holds those more often.
List of growth inhibition values.
# value in %; strip the unit string

Observe how each entry below is paired with its result.
1) CCCCP(CCCC)CCCC	-10
2) CC(=O)NC1C([Se][As](C)C)OC(COC(C)=O)C(OC(C)=O)C1OC(C)=O (configuration not stated)	-15.2
3) OC1(c2ccccc2)N=C(c2ccccc2)c2ccccc2-n2cccc21 (configuration not stated)	0.95
4) CC1=CC2=C(C)C3(CC3)[C@@](C)(O)C(=O)C2=C1	45.5
5) CCOP1(=O)C=C(C)C(Cl)=C(C)C1 (configuration not stated)	26.9
6) COc1ccc(N)cc1OC	-2.15

Exercise: Requested field: growth inhibition. Item: CCOP(=O)(OCC)/C(C#N)=C/c1ccccc1
Solution: 19.2

Exercise: Find the recorded growth inhibition belonging to [Cl][Pt][Cl].c1ccc([PH+](c2ccccc2)c2ccccc2)cc1.c1ccc([PH+](c2ccccc2)c2ccccc2)cc1 and report it.
Solution: -1.7

Exercise: Entry C/C=C/CC1(CC)C(=O)NC(=O)NC1=O : reported growth inhibition = ?
Solution: 16.9

Exercise: # growth inhibition lookup, item CC(=O)[O-].CC(=O)[O-].O=C(N/N=C/c1cc(Cl)cc(Cl)c1O)c1ccncc1.[Cu+2]
Solution: 2.55

Exercise: Param item = Cc1cc(C)[c]([Hg][Cl])c(C)c1 ; retrieve measured growth inhibition.
Solution: 98.5

Exercise: # lookup: growth inhibition of C[CH2][Sn]([I])([CH2]C)[CH2]C
Solution: 96
